test.system: T1, Mouse IL-11 (mouse, UniProt P47873 22-199, limits assumed)
T1 construct: also called murine IL-11; recombinant murine IL-11
T1 sequence (looked up): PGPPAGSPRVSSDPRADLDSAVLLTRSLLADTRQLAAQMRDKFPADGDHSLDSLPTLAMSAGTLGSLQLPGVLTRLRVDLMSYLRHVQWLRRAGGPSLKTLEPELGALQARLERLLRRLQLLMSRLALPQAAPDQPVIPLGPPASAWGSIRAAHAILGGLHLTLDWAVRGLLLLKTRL
test.details: ELISA
Procedure: The soluble scFv were produced by recombinant expression in E. coli, and analysed for their ability to bind to human IL-11 and murine IL-11 by ELISA. Briefly, the respective antigen was coated to wells of an ELISA plate, the cell culture supernatant containing the respective scFv was added at a 1:2 dilution, and binding was detected.
measured.property: mIL11 - average signal
Answer with the value's number alone.

binder	mIL11 - average signal
YU112-A07 (antibody) QVQLVESGGGVVQPGRSLRLSCAASGFTFSSYGMHWVRQAPGKGLEWVAVISYDGSNKYYTDSVKGRFTISRDNSKNTLYLQMNSLRAEDTAVYYCAKIGATDPLDYWGQGTLVTVSSGSASAPKLEEGEFSEARVQSALTQPRSVSGSPGQSVTISCTGTISDVGGYNYVSWYQQHPGKAPKLMIYDVTKRPSGVPDRFSGSKSGNTASLTISGLQAEDEAGYYCSSYAGSYTWVFGGGTELTVL	0.612

Any idea what its mIL11 - average signal is? The binder is YU100-E08 (antibody) QVQLVQSGGGVVQPGRSLRLSCAASGFTFSSYAMHWVRQAPGKGLEWVAVISYDGSNKYYADSVKGRFTISRDNSKNTLYLQMNSLRAEDTAVYYCARIMGYDYGDYDVVDYWGQGTLVTVSSGSASAPKLEEGEFSEARVQSALTQPRSVSGSPGQSVTISCTGTSSDVGGYNYVSWYQQHPGKAPKLMIYDVSRRPSGVPDRFSGSKSGNTASLTISGLQAEDEADYYCCSYAGNYTWMFGGGTKLTVL
0.251

Same question, YU100-F05 (antibody) QVQLQQSGGGVVQPGRSLRLSCAASGFTFSSYGMHWVRQAPGKGLEWVAVISYDGSNKYYADSVKGRFTISRDNSKNTLYLQMNSLRAEDTAVYYCAKIGATDPLDYWGQGTLVTVSSGSASAPKLEEGEFSEARVQAVLTQPASVSGSPGQSITISCTGTSSDIGGYNYVSWYQQHPGTAPKLMIYDVSSRPSGVSNRFSGSKSGNTASLTISGLQAEDEADYYCCSYAGSYTWVFGGGTKMTVL this time
0.542

Could you do the same for YU112-D08 (antibody) QVQLVESGGGVVQPGRSLRLSCAASGFTFSSYGMHWVRQAPGKGLEWVAVISYDGSNKYYADSVEGRFTISRDNSKNTLYLQMNSLRAEDTAVYYCAKIGATDPLDYWGQGTLVTVSSGSASAPKLEEGEFSEARVQSALTQPRSVSGSPGQSVTISCTGTISDVGGYNYVSWYQQHPGKAPKLMIYDVTKRPSGVPDRFSGSKSGNTASLTISGLQAEDEAGYYCSSYAGSYTWVFGGGTELTVL , please?
0.723

Same for YU100-A11 (antibody) EVQLQQSGGGVVQPGRSLRLSCAASGFTFSSYGMHWVRQAPGKGLEWVAVISYDGSNKYYADSVKGRFTISRDNSKNTLYLQMNSLRAEDTAVYYCAKIGATDPLDYWGQGTLVTVSSGSASAPKLEEGEFSEARVQSALTQPRSVSGSPGQSVTISCTGTSSDVGGYNYVSWYQQHPGKAPKLMIYDVSKRPSGVPDRFSGSKSGNTASLTISGLQAEDEADYYCCSYAGSYTWVFGGGTKLTVL
0.372

Query YU100-B09 (antibody, V domains shown) VH: QVQLVQSGGGVVQPGRSLRLSCAASGFTFSSYGMHWVRQAPGKGLEWVAVISYDGSNKYYADSVKGRFTISRDNSKNTLYLQMNSLRAEDTAVYYCAKIGATDPLDYWGQGTLVTVSS next
0.293

The reported numbers originate from patent US20210230266A1.
